Entry source: paper PMC9667936

measured.on: 14-3-3γ (Homo sapiens, UniProt P61981)
Construct: made in house; host or cells: E. coli NiCo21 (DE3)
Sequence (P61981 whole entry): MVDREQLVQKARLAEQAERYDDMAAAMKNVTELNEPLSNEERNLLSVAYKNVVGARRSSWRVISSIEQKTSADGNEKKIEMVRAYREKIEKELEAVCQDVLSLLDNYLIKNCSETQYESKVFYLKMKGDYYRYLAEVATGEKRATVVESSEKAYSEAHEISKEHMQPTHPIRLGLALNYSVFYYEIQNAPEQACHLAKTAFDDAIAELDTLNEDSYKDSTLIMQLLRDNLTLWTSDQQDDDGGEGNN
run.description: Fluorescence anisotropy (FA) binary binding study: 14-3-3 titrated to fluorescein-labelled peptide
measurement.setup: Table S3; KD / KD of previous peptide; replicate 2
Where a SMILES comes first, the peptide text is derived from it. [ ]: non-standard residue; d: D form. The star is where a group is joined. ξ: configuration not given here. FITC = O=C1OC2(c3ccc(O)cc3Oc3cc(O)ccc32)c2ccc(NC(=S)*)cc21; Phe(4-NO2) = N[C@@H](Cc1ccc([N+](=O)[O-])cc1)C(=O)O; ξAla(4-thiazolyl) = NC(Cc1cscn1)C(=O)O; pS = N[C@@H](COP(=O)(O)O)C(=O)O; β3hS = N[C@@H](CO)CC(=O)O; Nva = CCC[C@H](N)C(=O)O; AEA = NCCOCC(=O)O; βAla = NCCC(=O)O
measure.name: Fold change to previous

compound="CCC[C@H](NC(=O)[C@@H](CCCCN)NC(=O)COCCNC(=S)Nc1ccc2c(c1)C(=O)OC21c2ccc(O)cc2Oc2cc(O)ccc21)C(=O)N[C@@H](Cc1ccc([N+](=O)[O-])cc1)C(=O)NC(Cc1cscn1)C(=O)N[C@@H](COP(=O)(O)O)C(=O)N[C@@H](Cc1ccc([N+](=O)[O-])cc1)C(=O)N[C@@H](CO)CC(=O)NCCC(N)=O (stereo partly drawn) [2f] ({FITC-AEA}-[dK][Nva][Phe(4-NO2)][ξAla(4-thiazolyl)][pS][Phe(4-NO2)][β3hS][βAla]-NH2)" measure_name="Fold change to previous" assay_value=11,53
compound="CCC[C@H](NC(=O)[C@@H](CCCCN)NC(=O)COCCNC(=S)Nc1ccc2c(c1)C(=O)OC21c2ccc(O)cc2Oc2cc(O)ccc21)C(=O)N[C@@H](Cc1ccc([N+](=O)[O-])cc1)C(=O)NC(Cc1cscn1)C(=O)N[C@@H](COP(=O)(O)O)C(=O)N[C@@H](Cc1ccc([N+](=O)[O-])cc1)C(N)=O (stereo partly shown) [2h] ({FITC-AEA}-[dK][Nva][Phe(4-NO2)][ξAla(4-thiazolyl)][pS][Phe(4-NO2)]-NH2)" measure_name="Fold change to previous" assay_value=2,67
compound="CCC[C@H](NC(=O)[C@@H](CCCCN)NC(=O)COCCNC(=S)Nc1ccc2c(c1)C(=O)OC21c2ccc(O)cc2Oc2cc(O)ccc21)C(=O)N[C@@H](Cc1ccc([N+](=O)[O-])cc1)C(=O)NC(Cc1cscn1)C(=O)N[C@@H](COP(=O)(O)O)C(N)=O (stereo partly shown) [2i] ({FITC-AEA}-[dK][Nva][Phe(4-NO2)][ξAla(4-thiazolyl)][pS]-NH2)" measure_name="Fold change to previous" assay_value=3,56

Now for a further compound.
Suppose we examine the compound CCC[C@H](NC(=O)[C@@H](CCCCN)NC(=O)COCCNC(=S)Nc1ccc2c(c1)C(=O)OC21c2ccc(O)cc2Oc2cc(O)ccc21)C(=O)N[C@@H](Cc1ccc([N+](=O)[O-])cc1)C(=O)NC(Cc1cscn1)C(=O)N[C@@H](COP(=O)(O)O)C(=O)N[C@@H](Cc1ccc([N+](=O)[O-])cc1)C(=O)N[C@@H](CO)CC(N)=O (stereo partly drawn) [2g] ({FITC-AEA}-[dK][Nva][Phe(4-NO2)][ξAla(4-thiazolyl)][pS][Phe(4-NO2)][β3hS]-NH2) ; what Fold change to previous value has been reported?
1,84
